Assay: Plasma Ang-(1-7) concentration, radioimmunoassay
Assay type: in vivo
Settings: human, sc, 4 hours after first dose, 20 mg s.c., median, RIA, P < 0.05 vs baseline
Description: In the phase I trial, statistically significant changes in PlGF concentrations were identified 4 hours after the first Ang-(1-7) injection. To prospectively evaluate this biomarker, PlGF levels as well as VEGF, Ang-(1-7), Ang II, and Ang I were measured prior to the first dose, 4 hours after the first dose, and after 21 days of treatment in the phase II trial. Blood samples were immediately placed on ice and processed within 30 minutes of collection. […]
observed.property: level at 4 h (ng/mL)
Just the number in ng/mL, nothing appended.

INPUT: Suppose we examine the compound CC[C@H](C)[C@H](NC(=O)[C@H](Cc1ccc(O)cc1)NC(=O)[C@@H](NC(=O)[C@H](CCCNC(=N)N)NC(=O)[C@@H](N)CC(=O)O)C(C)C)C(=O)N[C@@H](Cc1c[nH]cn1)C(=O)N1CCC[C@H]1C(=O)O ; what level at 4 h value has been reported?
OUTPUT: 0.0611
